The origin of these recorded values is ChEMBL document CHEMBL4513216.

- methodSummary: Toxicity liver stage against HepG2, at 10uM
- Format: cell-based
- Parameters: test concentration 10 uM, cell line HepG2-A16-CD81EGFP
- protocolConditions: human, HepG2-A16-CD81EGFP cells; read-out: INHIBITION
# Lookup of reported cytotoxicity at 10 µM keyed by entry
Report as a plain number; the unit % is understood.

These solved cases illustrate the format of a correct answer.
Recorded cytotoxicity at 10 µM for COCCN1CCO[C@H]2CCN(C(=O)c3cccs3)CC[C@@H]21 , please?
-0.234

Try the molecule Cn1cccc1CNCC1CCCn2cc(C(C)(C)C)nc21 (stereo not drawn)
-19.8

Turning now to a further record.
Recorded cytotoxicity at 10 µM for Cc1nn(C)c(C)c1C1CCCN1Cc1nc2ccccc2n1C (stereo not drawn) , please?
-14.4
